Test system: Plasmodium berghei
Protocol Text: Luciferase/luciferin-expressing antifolate-resistant parasites were used to infect a culture of HepG2 cells that were pre-incubated with compounds. Infected hepatocytes emit light due to the luciferase reaction. Assay results are presented as the percent inhibition of light emission compared to control. […]
Assay type: functional
Assay Setup: sporozoite, PBLUC_HILL_SLOPE 1.46, PBLUC_R_SQUARED 0.3, read-out: LUCIFERASE INFECTION ASSAY - IC50
Measure Name: IC50 (µM)
The reply should be a number in µM, with the unit left off.

Problem: Using known records, supply IC50 for CCCN1CCc2nc(NCc3cccc(Oc4ccccc4)c3)ncc2C1
Result: 3.92
